# target.desc: Aldehyde dehydrogenase 1A1 (Homo sapiens)
# measurement.notes: qHTS Assay for Inhibitors of Aldehyde Dehydrogenase 1 (ALDH1A1)
# measurement.conditions: Purified ALDH1A1, NADH fluorescence, propionaldehyde substrate; series mostly up to 75.3 µM
About 16,000 (7.3%) of roughly 220,000 compounds were called active. Roughly 25% stayed inconclusive and do not appear here. The call rests on the fitted dose curve; in most records, active means well fitted inhibition curve with a large enough effect (not every such curve was filed as active); inconclusive means small, poorly fitted or top-dose-only effect, or another doubt; inactive means no such curve, though single readings can be large or run the other way. The full list was thinned out, with actives kept by preference.
Your response should consist of one outcome taken from Yes (active), No (inactive)

Observe how each entry below is paired with its result.
{"columns": ["compound", "classification"],
 "data": [
  ["Cc1ccc(CN2CCN(Cc3ccc4ncccc4c3)CC2CCO)cc1 (configuration not stated)", "No"],
  ["CN(C)S(=O)(=O)Oc1ccccc1C(=O)Nc1ccccc1Cl", "No"],
  ["COC(=O)C1=C(C)N(C(C)c2ccccc2)C(=O)/C1=C\\c1ccco1 (configuration not stated)", "No"],
  ["COC(=O)c1cc2c(ccn2C)n1C", "No"],
  ["COc1cccc(CC2(CO)CCN(Cc3cnc(-c4cccc(C)c4)nc3)CC2)c1", "No"]
]}

What outcome does the record of this test show for CC(C)C(=O)Nc1nnc(Sc2ccc(N(C)C)cc2)s1 ? Yes

For COC(=O)C(C)N=Cc1ccccc1 (configuration not stated) , which call appears in the assay record? No

Any idea what this test logged for CCOc1ccc(C(=O)N(Cc2ccc(N(C)C)cc2)C2CCS(=O)(=O)C2)cc1 (configuration not stated) ? Yes

Assay outcome for Cc1ccc(NC(=O)Cn2c(=O)n(CCC(=O)NC3CCN(Cc4ccccc4)CC3)c(=O)c3ccccc32)cc1 : what was it? No

Recorded test call requested for COc1ccc(NC(=O)COc2ccc(C(=O)OCC(=O)N(C)C3CCS(=O)(=O)C3)cc2OC)cc1 (configuration not stated) No

Could you kindly confirm the outcome this assay logged for CCCCN(C(=O)COc1ccc(NC(C)=O)cc1)C1CCS(=O)(=O)C1 (configuration not stated) ? No

Called result for COCc1ccc(C(=O)N2CCc3c([nH]c4ccccc34)C2c2ccccn2)s1 (configuration not stated) No

Hi, do you know how CCSc1nnc(NC(=O)Cc2ccccc2OC)s1 came out in this test? No

Name the outcome recorded for CC(Oc1ccc(Br)cc1Br)C(=O)NC1CCCC1 (configuration not stated) in the assay. No

For this compound, state the assay outcome: COc1ccc(C(=O)N(Cc2ccc(N(C)C)cc2)C2CCS(=O)(=O)C2)cc1 (configuration not stated) Yes

Assay result, entry CCOC(=O)/C=c1\s/c(=C\c2ccc(C#N)cc2)c(=O)n1CC(=O)Nc1cccc(C)c1C — outcome? No

Would you mind telling me which call this test gave CCCNC(=S)N1CCCC(c2nc3ccccc3[nH]2)C1 (configuration not stated) ? No

What is the recorded call for this compound in the test? Nc1nc(NC(=O)/C=C/c2ccc(F)cc2)nn1-c1ccccc1 No

What did the test return for Cc1c(Cl)c([N+](=O)[O-])nn1CCCC(=O)NC(C)c1ccccc1 (configuration not stated) ? No

Per the records of this test, what outcome belongs to COc1cc(OC)c(-n2c(C)cc(C=O)c2C)cc1Cl ? Yes

Field: outcome | Entry: COc1cc(C(=O)N(Cc2ccc(N(C)C)cc2)C2CCS(=O)(=O)C2)cc(OC)c1OC (configuration not stated) No

For this compound, state the assay outcome: COc1cccc(OC)c1CN(C)C(=O)c1cnccc1C(F)(F)F No
